Overview of recorded inhibition for various molecules
Molecular target: Cannabinoid receptor 1 (Homo sapiens) (UniProt P21554)
Sequence (P21554 whole entry): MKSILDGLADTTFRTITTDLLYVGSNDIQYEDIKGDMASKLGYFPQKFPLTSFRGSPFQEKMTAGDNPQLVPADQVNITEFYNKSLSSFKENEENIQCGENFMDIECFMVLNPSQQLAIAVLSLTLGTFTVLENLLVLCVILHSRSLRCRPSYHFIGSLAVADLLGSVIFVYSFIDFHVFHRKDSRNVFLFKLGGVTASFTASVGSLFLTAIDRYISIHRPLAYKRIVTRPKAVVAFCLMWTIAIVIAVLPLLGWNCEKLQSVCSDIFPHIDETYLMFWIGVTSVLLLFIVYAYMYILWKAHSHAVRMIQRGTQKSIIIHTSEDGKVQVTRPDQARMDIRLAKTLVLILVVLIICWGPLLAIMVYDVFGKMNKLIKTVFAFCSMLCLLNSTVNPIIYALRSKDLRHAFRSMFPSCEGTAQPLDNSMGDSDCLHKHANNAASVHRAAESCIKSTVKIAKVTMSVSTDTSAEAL
Experiment: SafetyScreen: CB1 Human Cannabinoid GPCR Binding Agonist Radioligand LeadHunter Assay, catalogue number: 4708
Conditions: Test compound concentration 10.0 uM
Value expressed in %; do not type the unit.

Consider the reported inhibition for these molecules:
{"Given Smiles": "CC(C)[C@H](Nc1ncnc2[nH]c(-c3cnn(C)c3C#N)cc12)c1ccc2c(n1)OCCO2", "Unit": "%", "inhibition": 46}
{"Given Smiles": "CNC(=O)Cn1cc(-c2cc3c(N[C@@H](c4ccc5c(c4)S(=O)(=O)CCC5)C(C)C)ncnc3[nH]2)cn1", "Unit": "%", "inhibition": -10}
{"Given Smiles": "Cc1nn(C)cc1-c1cc2c(N[C@H](c3ccc4c(c3)S(=O)(=O)CCC4)C(C)C)ncnc2[nH]1", "Unit": "%", "inhibition": 0}

Task item: Value wanted: inhibition (Cannabinoid receptor 1 (Homo sapiens) (UniProt P21554)) of entry CC(C)[C@@H](Nc1ncnc2[nH]c(C(=O)N[C@@H]3CCN(C)C3)cc12)c1ccc2c(c1)S(=O)(=O)CCC2
Reply: -10

Task item: Also CC(C)[C@@H](Nc1ncnc2[nH]c(-c3cnn(C)c3C#N)cc12)c1ccc2c(n1)OCCO2 ?
Reply: 14

Values from ChEMBL document CHEMBL5442334
